Examples of binders with documented % Positive cells follow.
biological target: T1, human CCR8 (human, UniProt P51685 1-355); experiment: flow blocking, PBMC CCR8+CD4+; competitor PE-AB5
T1 construct: Native CCR8 on human PBMC (CCR8+ CD3+ or CCR8+ CD4+ lymphocytes); also called chemokine (C-C motif) receptor 8
T1 sequence (P51685 whole entry): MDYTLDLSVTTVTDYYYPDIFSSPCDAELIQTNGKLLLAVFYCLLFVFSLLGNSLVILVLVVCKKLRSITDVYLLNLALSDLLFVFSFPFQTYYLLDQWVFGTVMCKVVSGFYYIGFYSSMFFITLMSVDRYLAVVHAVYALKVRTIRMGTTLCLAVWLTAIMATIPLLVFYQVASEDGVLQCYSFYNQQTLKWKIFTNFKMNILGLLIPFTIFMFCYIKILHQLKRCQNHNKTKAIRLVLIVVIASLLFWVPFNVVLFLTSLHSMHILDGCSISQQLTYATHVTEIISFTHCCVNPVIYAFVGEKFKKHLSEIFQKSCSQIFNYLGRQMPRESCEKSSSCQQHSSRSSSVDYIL
Unit % implied. Number only.

[[record]]
binder = "AB4 (antibody, V domains shown, Hybridoma monoclonal; also called antibody 4; clone 4) VH: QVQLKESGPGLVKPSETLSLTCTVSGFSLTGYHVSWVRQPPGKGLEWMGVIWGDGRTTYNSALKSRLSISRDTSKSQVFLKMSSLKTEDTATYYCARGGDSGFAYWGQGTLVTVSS VL: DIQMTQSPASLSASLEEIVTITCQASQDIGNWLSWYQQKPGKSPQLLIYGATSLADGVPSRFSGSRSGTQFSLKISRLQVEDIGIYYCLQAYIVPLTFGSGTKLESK"
output_unit = "%"
result = 0.26

[[record]]
binder = "AB10 (antibody, V domains shown, Hybridoma monoclonal; also called antibody 10; clone 10) VH: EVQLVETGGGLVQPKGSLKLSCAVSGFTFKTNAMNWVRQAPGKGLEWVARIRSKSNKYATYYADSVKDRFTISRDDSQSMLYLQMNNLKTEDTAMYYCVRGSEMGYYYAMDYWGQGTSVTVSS VL: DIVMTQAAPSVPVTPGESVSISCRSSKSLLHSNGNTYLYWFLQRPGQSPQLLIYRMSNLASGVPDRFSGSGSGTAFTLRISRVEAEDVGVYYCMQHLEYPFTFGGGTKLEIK"
output_unit = "%"
result = 2.38

[[record]]
binder = "AB13 (antibody, V domains shown, Hybridoma monoclonal; also called antibody 13; clone 13) VH: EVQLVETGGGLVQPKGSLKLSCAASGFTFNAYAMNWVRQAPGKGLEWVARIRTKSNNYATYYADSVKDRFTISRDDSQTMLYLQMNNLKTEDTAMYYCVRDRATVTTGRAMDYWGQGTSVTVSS VL: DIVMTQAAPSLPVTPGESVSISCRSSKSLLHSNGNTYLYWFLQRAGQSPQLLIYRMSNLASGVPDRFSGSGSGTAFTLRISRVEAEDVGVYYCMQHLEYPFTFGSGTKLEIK"
output_unit = "%"
result = 2.18


-- ask Name the recorded % Positive cells of the item AB14 (antibody, V domains shown, Hybridoma monoclonal; Same VH/VL entries as AB15; also called antibody 14; clone 14) VH: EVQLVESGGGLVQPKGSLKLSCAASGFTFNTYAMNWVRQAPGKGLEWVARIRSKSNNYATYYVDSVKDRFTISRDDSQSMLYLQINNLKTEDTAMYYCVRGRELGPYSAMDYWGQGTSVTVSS VL: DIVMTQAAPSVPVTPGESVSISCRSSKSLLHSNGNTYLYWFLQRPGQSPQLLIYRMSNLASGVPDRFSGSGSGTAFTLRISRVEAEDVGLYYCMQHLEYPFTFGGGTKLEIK in your answer.
-- reply 1.88
